# test: Thermodynamic solubility of salts in water
# Type: physicochemical
# study-conditions: 37° C., pH 6.8-7.4, stirring 500 rpm, 24 hours
quantity-name: Solubility (mg/mL)

O=C(O)C1(c2ccc(-c3ccc(Cl)c(Cl)c3)c(F)c2)CC1 [Sodium] | 20.4

1. O=C(O)C1(c2ccc(-c3ccc(Cl)c(Cl)c3)c(F)c2)CC1 [L-Arginine]
2. O=C(O)C1(c2ccc(-c3ccc(Cl)c(Cl)c3)c(F)c2)CC1 [L-Lysine]
3. O=C(O)C1(c2ccc(-c3ccc(Cl)c(Cl)c3)c(F)c2)CC1 [Potassium]
Challenge: Number of compounds to sort: 3. Sort criterion: Solubility, ascending. Answer format: the labels, in the requested order.
Response given: 3, 1, 2
